The values you see were collected from ChEMBL document CHEMBL5252555.

Please provide measured log10(MIC) for the entries that follow.
# Test system: Enterococcus faecium
# ASSAY_METHOD_TEXT: Antibacterial activity against Enterococcus faecium 35682 assessed as inhibition of bacterial growth incubated for 18 hrs by broth microdilution method
# Type: functional
Response schema: value (number) is log10 of MIC in units of µg/mL.

Looking up `CCCc1c(Cl)c(OC)c(Cl)c2c1OC(=O)c1c(CCC)c(Cl)c(O)c(Cl)c1O2` , I found its log10(MIC) recorded as 0.90

Looking up `CCCc1c(O)c(Oc2c(Cl)c(O)c(Cl)c3c2C(=O)O[C@H](C)C3)cc(OC)c1Cl` , I found its log10(MIC) recorded as 1.20

Looking up `CCCc1c(Cl)c(OC)c(Cl)c(Oc2c(Cl)c(O)c(Cl)c3c2C(=O)O[C@H](C)C3)c1OC` , I found its log10(MIC) recorded as 1.51

Looking up `CCCc1c(Cl)c(O)c(Cl)c2c1Oc1c(Cl)c(O)c(Cl)c(CCC)c1C(=O)O2` , I found its log10(MIC) recorded as 0.60

Looking up `CCCc1c(Cl)c(O)cc2c1Oc1cc(O)c(Cl)c(CCC)c1C(=O)O2` , I found its log10(MIC) recorded as 1.51

Looking up `CCCc1c(O)c(Oc2c(Cl)c(O)c(Cl)c(CCC)c2C(=O)OC)c(Cl)c(OC)c1Cl` , I found its log10(MIC) recorded as 1.20

Looking up `CCCc1c(Cl)c(OC)cc2c1Oc1c(Cl)c(O)c(Cl)c(CCC)c1C(=O)O2` , I found its log10(MIC) recorded as 0.90

Looking up `CCCc1c(Cl)c(OC)c(Cl)c2c1Oc1c(Cl)c(O)c(Cl)c(CCC)c1C(=O)O2` , I found its log10(MIC) recorded as 0.30

Looking up `CCCc1cc(Oc2c(O)c(Cl)c(O)c(Cl)c2CCC)c(Cl)c(OC)c1Cl` , I found its log10(MIC) recorded as 0.30

* * *

# Tested on: Enterococcus faecium
# ASSAY_METHOD_TEXT: Antibacterial activity against Enterococcus faecium 35682 assessed as inhibition of bacterial growth incubated for 18 hrs by broth microdilution method
# Assay type: functional
Please provide measured MIC for the entries that follow.

Looking up `COc1c(Cl)c(O)c(Cl)c2c1C(=O)O[C@H](C)C2` , I found its MIC recorded as > 128 µg/mL

Looking up CCCCC/C=C1/C(=O)C(CC=C(C)C)=C(C)C1O (centres undefined) , I found its MIC recorded as > 128 µg/mL

Looking up CN[C@H](CC(C)C)C(=O)N[C@H]1C(=O)N[C@@H](CC(N)=O)C(=O)N[C@H]2C(=O)N[C@H]3C(=O)N[C@H](C(=O)N[C@H](C(=O)O)c4cc(O)cc(O)c4-c4cc3ccc4O)[C@H](O)c3ccc(c(Cl)c3)Oc3cc2cc(c3O[C@@H]2O[C@H](CO)[C@@H](O)[C@H](O)[C@H]2O[C@H]2C[C@](C)(N)[C@H](O)[C@H](C)O2)Oc2ccc(cc2Cl)[C@H]1O [VANCOMYCIN] , I found its MIC recorded as > 64 µg/mL

Looking up CC1(C)S[C@@H]2[C@H](NC(=O)[C@H](N)c3ccccc3)C(=O)N2[C@H]1C(=O)O [AMPICILLIN] , I found its MIC recorded as > 64 µg/mL
